test: inhibitors of measles virus growth in cells, primary screen, measles RdRp inhibitor project, cell-based, single point, HTS (AID 745); settings: infected Vero cells, GFP fluorescence, 64 h; hits give low values
In all, about 33,000 compounds went through this assay and about 40 (0.1%) were called active. The entries come from a sample that favours actives as a whole.
observationType: z-score
Just the number, please.

INSERT INTO results (compound, observationtype, numericvalue) VALUES
  ('O=C1C2C3c4ccccc4C(Br)(c4ccccc43)C2C(=O)N1c1ccc([N+](=O)[O-])cc1 (stereo unspecified)', 'z-score', -0.34),
  ('Cc1cccc(C)c1NC(=O)CSc1ccc([N+](=O)[O-])cn1', 'z-score', 0.01),
  ('O=C(c1oc(=O)c2ccccc2c1-c1ccccc1)N1CCc2ccccc21', 'z-score', 0.81);

**Q:** Report measured z-score; entry is O=C(NCCN1CCOCC1)c1cc(Sc2cccc(Cl)c2)nc2ccccc12
**A:** 0.36

**Q:** Name the recorded z-score of the item CC(C)(C)c1nnc(Nc2ccc3c(c2)OCO3)[nH]c1=O in your answer.
**A:** -0.67

**Q:** Give the measured z-score for O=C1NC(c2ccccc2)Oc2ccccc21 (stereo unspecified)
**A:** -0.5

**Q:** Specify z-score for Cc1ccccc1CSC1=NCCN1C(=O)C12CC3CC(CC(C3)C1)C2 and stop.
**A:** -0.58

**Q:** Specify reported z-score for the compound shown: CCOc1ccc(N=C2NC(=O)C(CC(=O)Nc3ccc(Br)cc3)S2)cc1 (stereo unspecified)
**A:** -0.81
